# TARGET OR SYSTEM: CIB1 and αIIb interaction (CIB1-GST : F-αIIb peptide) (Homo sapiens, UniProt Q99828)
# Construct: made in house; host or cells: BL-21 plus RIL cells (E. coli)
# Sequence (Q99828 whole entry): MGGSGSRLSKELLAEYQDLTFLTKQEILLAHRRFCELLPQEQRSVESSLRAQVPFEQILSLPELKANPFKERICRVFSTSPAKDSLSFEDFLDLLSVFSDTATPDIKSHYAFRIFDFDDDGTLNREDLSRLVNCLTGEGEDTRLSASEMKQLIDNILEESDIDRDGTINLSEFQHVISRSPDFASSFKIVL
# PROTOCOL SUMMARY: FP assay, 1536-well qHTS format (primary and confirmatory screen)
# Type: binding
# CONDITION INFO: qHTS FP screen hits, Table S2; one class per curve where COUNT > 1; negative sign = inhibitory curve
RESULT TYPE: Curve Class
Format: numeric value only, no unit, no commentary.

O=C(O)Cc1ccc(CCNS(=O)(=O)c2ccc(Cl)cc2)cc1 : -2.2
O=c1nc(-c2ccccn2)sc2ccccc12 : -1.2
CNc1ccc([N+](=O)[O-])c(Nc2ccc3[nH]ncc3c2)n1 : -1.2
CCC(=O)NC(c1cccs1)c1cc(Br)c2cccnc2c1O (stereo not shown) : -1.2
CC(=O)NC(Cc1ccccc1)C(=O)O (stereo not shown) : -2.2

[in] Kindly state the measured Curve Class obtained for NC(=O)C1CCN(c2ncc(Br)s2)CC1 with CIB1 and αIIb interaction (CIB1-GST : F-αIIb peptide) (Homo sapiens, UniProt Q99828).
[out] -2.1

[in] Note, next up: CCOc1ccc(CCNC(C)=O)cc1OCC.O=C(O)C(F)(F)F
[out] -2.2

[in] Consider next the compound CN1CCN([C@H]2CC[C@H](n3cc(-c4ccc(Oc5ccccc5)cc4)c4c(N)ncnc43)CC2)CC1.Cl in the same way.
[out] -2.2

[in] Repeat for the following compound: CC1=C(C(=O)Nc2cccc(C(=O)O)c2)C(c2ccccc2Cl)N=C(Nc2nc3ccccc3o2)N1.O=C(O)C(F)(F)F (stereo not shown)
[out] -2.2
